// data source = ChEMBL document CHEMBL1201862

System: HL-60
measurement-protocol: NCI tumour cell line growth inhibition, 48 h
Active and inactive are the calls of the source. Cut-off read from the data, not from the text of the source: active = GI50 up to about 1.1 µM and inactive = higher.
Reply using exactly one outcome from 1.0 for active, 0.0 for inactive

Use the examples below as a reference point.
>>> category_label("CN(C(=O)c1ccncc1)c1ccccc1")
0.0
>>> category_label("COc1ccc2nc3cc(Cl)ccc3c(NCCCCCC(=O)NC(COc3cnc4c(ccc5cccnc54)c3)COc3cnc4c(ccc5cccnc54)c3)c2c1")
0.0
>>> category_label("Nc1c(S(=O)(=O)O)cc2cc(S(=O)(=O)O)ccc2c1/N=N/c1ccc(-c2ccc(/N=N/c3c(N)c(S(=O)(=O)O)cc4cc(S(=O)(=O)O)ccc34)c(S(=O)(=O)O)c2)cc1")
0.0
>>> category_label("CC1C(OS(=O)(=O)c2ccc3nc(S)sc3c2)CC2C3(C)CCC2(C(C)C(=O)O)C(O)C13 (stereo unspecified)")
0.0
>>> category_label("CCOC(=O)C1C(=O)C=C(c2cc(C)ccc2O)CC1c1cccc(Br)c1 (stereo unspecified)")
0.0

Please let me know the test result on file for O=C1CCCc2cc3c(cc21)CC1(C3)Cc2cc3c(cc2C1)C(=O)CCC3 .
1.0

Please let me know the test result on file for O=C(O)c1ccc(Nc2cnc3ccc(C(F)(F)F)cc3n2)cc1 .
0.0

Please let me know the test result on file for c1ccc(CNc2nncc3[nH]cnc23)cc1 .
0.0

Please let me know the test result on file for CCCCCCCCOC(=O)C12Oc3ccc(-c4ccc5c(c4O)C(=O)C4=C(O)CC(C)C(O)C4(C(=O)OCCCCCCCC)O5)c(O)c3C(=O)C1=C(O)CC(C)C2O (stereo unspecified) .
0.0

Please let me know the test result on file for COc1ccc2c3c([nH]c2c1[N+](=O)[O-])C(C)=NCC3 .
0.0

Please let me know the test result on file for COc1ccc(C(C#N)Cc2cc(OC)c(OC)c(OC)c2)cc1 (stereo unspecified) .
0.0

Please let me know the test result on file for COc1ccc2[nH]c(CCNC(=O)c3cc([N+](=O)[O-])cc([N+](=O)[O-])c3)cc2c1 .
0.0
